target: UniProtKB P11716
Sequence (P11716 whole entry): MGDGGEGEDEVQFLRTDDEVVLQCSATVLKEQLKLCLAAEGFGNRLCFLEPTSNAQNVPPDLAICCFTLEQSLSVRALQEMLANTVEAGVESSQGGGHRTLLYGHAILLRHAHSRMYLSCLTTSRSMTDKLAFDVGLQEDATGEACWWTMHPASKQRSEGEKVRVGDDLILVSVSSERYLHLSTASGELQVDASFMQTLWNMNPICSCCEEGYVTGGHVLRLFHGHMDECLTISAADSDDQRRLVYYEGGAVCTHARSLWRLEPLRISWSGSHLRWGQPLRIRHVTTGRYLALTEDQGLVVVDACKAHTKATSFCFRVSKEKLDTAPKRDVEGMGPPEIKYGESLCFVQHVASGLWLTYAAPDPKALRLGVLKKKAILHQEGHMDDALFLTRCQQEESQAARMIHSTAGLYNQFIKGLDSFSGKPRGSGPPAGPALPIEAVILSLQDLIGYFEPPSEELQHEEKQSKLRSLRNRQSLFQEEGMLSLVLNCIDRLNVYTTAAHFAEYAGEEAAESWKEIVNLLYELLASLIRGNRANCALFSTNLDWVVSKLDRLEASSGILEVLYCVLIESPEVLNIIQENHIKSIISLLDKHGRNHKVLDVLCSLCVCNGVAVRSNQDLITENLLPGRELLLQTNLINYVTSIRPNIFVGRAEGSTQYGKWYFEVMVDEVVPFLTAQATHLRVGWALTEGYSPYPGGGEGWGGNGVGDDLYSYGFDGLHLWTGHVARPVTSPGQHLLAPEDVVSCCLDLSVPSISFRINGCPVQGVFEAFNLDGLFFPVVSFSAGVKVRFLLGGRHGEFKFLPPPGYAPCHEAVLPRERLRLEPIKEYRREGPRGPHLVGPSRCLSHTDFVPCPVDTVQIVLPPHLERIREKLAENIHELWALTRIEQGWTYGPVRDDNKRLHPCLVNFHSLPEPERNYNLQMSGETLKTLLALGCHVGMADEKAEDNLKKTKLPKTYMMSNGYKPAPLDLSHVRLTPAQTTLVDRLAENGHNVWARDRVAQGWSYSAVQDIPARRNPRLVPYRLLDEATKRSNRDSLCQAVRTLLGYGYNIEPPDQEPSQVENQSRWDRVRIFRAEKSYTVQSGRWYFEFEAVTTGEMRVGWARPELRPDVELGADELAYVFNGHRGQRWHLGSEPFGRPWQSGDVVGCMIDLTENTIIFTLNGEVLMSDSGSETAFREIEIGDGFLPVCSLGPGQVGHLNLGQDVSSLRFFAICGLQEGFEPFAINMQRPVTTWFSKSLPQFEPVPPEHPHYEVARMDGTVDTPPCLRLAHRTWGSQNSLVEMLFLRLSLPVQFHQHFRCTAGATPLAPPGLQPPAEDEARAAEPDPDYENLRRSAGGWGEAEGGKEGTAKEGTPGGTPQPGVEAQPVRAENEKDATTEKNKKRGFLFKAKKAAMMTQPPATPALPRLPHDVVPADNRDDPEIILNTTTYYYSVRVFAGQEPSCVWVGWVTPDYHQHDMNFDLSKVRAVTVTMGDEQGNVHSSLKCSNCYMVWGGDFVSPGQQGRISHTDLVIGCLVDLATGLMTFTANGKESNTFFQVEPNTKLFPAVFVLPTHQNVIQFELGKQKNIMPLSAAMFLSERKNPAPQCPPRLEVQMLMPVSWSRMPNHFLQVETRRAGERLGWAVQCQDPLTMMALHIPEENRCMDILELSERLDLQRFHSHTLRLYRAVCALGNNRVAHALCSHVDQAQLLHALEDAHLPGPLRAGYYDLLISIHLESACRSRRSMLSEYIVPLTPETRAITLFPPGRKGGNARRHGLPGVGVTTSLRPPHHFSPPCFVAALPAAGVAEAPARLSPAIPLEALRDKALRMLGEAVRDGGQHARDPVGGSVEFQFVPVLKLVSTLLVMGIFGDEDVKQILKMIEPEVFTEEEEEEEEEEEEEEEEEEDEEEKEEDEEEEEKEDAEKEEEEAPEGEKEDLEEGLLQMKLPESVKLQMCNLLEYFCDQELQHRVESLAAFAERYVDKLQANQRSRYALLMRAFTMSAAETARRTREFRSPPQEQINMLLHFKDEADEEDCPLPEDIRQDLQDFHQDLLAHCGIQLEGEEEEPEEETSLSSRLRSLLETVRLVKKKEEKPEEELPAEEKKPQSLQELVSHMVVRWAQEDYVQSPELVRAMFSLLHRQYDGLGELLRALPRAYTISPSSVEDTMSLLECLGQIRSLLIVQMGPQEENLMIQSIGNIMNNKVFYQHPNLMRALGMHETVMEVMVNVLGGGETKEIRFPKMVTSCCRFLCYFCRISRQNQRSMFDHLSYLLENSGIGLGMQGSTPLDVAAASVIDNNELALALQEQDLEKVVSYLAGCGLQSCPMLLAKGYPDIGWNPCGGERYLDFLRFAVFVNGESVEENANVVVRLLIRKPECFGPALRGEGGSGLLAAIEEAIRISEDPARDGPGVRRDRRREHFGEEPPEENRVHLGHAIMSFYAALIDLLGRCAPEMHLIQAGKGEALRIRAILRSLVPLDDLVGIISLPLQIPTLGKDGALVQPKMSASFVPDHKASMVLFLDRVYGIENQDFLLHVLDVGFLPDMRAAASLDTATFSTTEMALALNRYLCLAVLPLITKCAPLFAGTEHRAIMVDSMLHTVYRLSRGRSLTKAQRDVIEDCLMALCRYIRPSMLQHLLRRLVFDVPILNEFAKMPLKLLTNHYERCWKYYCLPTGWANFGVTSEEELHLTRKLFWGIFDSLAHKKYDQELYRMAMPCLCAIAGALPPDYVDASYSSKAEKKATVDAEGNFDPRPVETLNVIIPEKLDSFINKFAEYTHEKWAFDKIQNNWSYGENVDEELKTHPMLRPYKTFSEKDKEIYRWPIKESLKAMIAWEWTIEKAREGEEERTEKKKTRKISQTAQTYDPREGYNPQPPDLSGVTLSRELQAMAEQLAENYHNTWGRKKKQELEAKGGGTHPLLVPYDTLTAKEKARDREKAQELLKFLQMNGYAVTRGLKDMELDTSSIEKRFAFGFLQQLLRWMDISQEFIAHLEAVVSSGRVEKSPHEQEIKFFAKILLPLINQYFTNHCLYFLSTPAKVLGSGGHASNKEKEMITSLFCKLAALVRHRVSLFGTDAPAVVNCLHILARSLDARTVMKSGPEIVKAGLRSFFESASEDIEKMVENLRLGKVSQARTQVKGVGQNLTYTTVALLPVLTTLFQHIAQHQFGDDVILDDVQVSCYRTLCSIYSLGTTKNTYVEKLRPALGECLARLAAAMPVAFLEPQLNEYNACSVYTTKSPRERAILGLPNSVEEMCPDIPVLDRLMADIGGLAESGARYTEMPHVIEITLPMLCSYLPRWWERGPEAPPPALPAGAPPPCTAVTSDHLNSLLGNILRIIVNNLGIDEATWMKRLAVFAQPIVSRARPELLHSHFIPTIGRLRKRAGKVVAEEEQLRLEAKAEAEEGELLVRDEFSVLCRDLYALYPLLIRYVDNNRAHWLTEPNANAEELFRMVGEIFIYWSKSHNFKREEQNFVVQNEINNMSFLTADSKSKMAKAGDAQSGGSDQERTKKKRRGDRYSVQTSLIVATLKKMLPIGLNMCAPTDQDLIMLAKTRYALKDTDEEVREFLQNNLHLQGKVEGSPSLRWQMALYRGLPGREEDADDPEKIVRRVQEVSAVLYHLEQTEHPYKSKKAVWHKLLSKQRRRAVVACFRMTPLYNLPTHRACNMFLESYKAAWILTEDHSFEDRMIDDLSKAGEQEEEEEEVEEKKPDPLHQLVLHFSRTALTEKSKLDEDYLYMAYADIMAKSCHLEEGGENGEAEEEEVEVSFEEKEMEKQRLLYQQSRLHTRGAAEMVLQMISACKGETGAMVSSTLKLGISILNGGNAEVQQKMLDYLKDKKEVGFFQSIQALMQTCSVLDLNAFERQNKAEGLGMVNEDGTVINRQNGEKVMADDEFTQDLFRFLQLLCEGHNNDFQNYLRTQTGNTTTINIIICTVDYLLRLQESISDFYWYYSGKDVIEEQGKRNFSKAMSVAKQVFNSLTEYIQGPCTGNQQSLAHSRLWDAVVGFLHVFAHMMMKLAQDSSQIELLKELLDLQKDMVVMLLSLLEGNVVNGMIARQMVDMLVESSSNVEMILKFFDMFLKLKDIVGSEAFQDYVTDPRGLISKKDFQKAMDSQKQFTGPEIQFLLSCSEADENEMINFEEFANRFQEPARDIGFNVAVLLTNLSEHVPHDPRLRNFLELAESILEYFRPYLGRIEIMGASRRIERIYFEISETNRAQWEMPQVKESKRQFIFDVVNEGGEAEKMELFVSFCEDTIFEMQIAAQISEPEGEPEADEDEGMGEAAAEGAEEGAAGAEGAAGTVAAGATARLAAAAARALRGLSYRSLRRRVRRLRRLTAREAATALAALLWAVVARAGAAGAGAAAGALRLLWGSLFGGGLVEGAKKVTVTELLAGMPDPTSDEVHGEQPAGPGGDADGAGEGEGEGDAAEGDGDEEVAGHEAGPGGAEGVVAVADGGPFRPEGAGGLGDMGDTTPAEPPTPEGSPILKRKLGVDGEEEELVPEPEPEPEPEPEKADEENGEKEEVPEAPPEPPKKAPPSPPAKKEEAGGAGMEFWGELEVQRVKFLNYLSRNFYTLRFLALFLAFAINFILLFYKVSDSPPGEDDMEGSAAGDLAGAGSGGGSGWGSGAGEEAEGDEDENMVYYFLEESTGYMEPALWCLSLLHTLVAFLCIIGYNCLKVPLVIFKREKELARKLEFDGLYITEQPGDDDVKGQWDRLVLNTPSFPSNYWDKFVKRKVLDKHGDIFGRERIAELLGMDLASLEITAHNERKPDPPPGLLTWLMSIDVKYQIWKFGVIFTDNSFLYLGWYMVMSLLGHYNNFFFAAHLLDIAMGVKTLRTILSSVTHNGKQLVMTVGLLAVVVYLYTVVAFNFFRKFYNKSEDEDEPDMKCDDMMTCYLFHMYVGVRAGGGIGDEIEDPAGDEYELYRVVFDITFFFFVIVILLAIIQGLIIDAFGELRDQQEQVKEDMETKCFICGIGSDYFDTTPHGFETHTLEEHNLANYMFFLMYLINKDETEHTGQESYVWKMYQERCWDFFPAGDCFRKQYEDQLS
Documented IC50 across a set of compounds
Write down the numeric answer in µM and omit the unit.

CC1=CC[C@]2(O)[C@]3(C)C[C@]4(O)O[C@@]2(C1=O)[C@]1(O)[C@@]3(O)[C@H](OC(=O)c2ccc[nH]2)[C@](O)(C(C)C)[C@@]14C | 7.3

[in] State its IC50 on UniProtKB P11716: CO[C@@]12C[C@@]3(C)[C@@]4(O)CC[C@H](C)[C@@H](O)[C@]4(O1)[C@]1(O)[C@@]3(OC)[C@H](OC(=O)c3cccn3C)[C@](O)(C(C)C)[C@]21C
[out] 4.5

[in] State its IC50 on UniProtKB P11716: C=C1CC[C@]2(O)[C@]3(C)C[C@]4(O)O[C@@]2([C@@H]1O)[C@]1(O)[C@@]3(O)[C@H](OC(=O)c2ccc[nH]2)[C@](O)(C(C)C)[C@@]14C [DEHYDRORYANODINE]
[out] 0.013

[in] State its IC50 on UniProtKB P11716: CC(C)[C@@]1(O)[C@@H](OC(=O)c2cccn2Cc2ccccc2)[C@@]2(O)[C@@]3(C)C[C@]4(O)O[C@@]5([C@H](O)[C@@H](C)CC[C@]35O)[C@@]2(O)[C@]14C
[out] 0.31
